System: A498
Assay: minimum viability across doses, drug alone, relative to DMSO (fraction); higher = less growth inhibition
Conditions: treatment: drug alone; 5 days
Reported minimum viability across doses is given for each of the following molecules.
QUANTITY KIND: minimum viability across doses

MOLECULE	RESULT NUMBER
CNC(=O)c1cc(COc2nnc(Nc3ccc(Cl)cc3)c3ccoc23)ccn1 [Telatinib (BAY 57-9352)]	0.951
COc1cc(Nc2ncc(F)c(Nc3ccc4c(n3)NC(=O)C(C)(C)O4)n2)cc(OC)c1OC.O=S(=O)(O)c1ccccc1 [R406]	0.882
CO[C@H]1C[C@@H]2CC[C@@H](C)[C@@](O)(O2)C(=O)C(=O)N2CCCC[C@H]2C(=O)O[C@H]([C@H](C)C[C@@H]2CC[C@@H](O)[C@H](OC)C2)CC(=O)[C@H](C)/C=C(\C)[C@@H](O)[C@@H](OC)C(=O)[C@H](C)C[C@H](C)/C=C/C=C/C=C/1C [Rapamycin (Sirolimus)]	0.547
CCn1c(-c2nonc2N)nc2c(C#CC(C)(C)O)ncc(OC[C@H]3CCCNC3)c21	0.979
O=C(Nc1ccc(OC(F)(F)F)cc1)c1sccc1NCc1ccnc2ccccc12 [OSI-930]	0.722
CNC(=O)c1nn(C)c2c1C(C)(C)Cc1cnc(Nc3ccc(N4CCN(C)CC4)cc3)nc1-2	0.0273

Data origin, for the record: the supplement of paper PMC8149375
